For each record, write down the corresponding cytochrome c release ratio.
Test: inhibitors of mitochondrial cytochrome c release, biochemical, purified mitochondria (AID 1603);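 note: mouse liver mitochondria challenged with calcium chloride; signal normalized to the plate average as 100%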
Details: stronger effect = lower value
Numbers only.

Consider the reported cytochrome c release ratio for these compounds:
- compound: "NS(=O)(=O)c1cc(C2(O)NC(=O)c3ccccc32)ccc1Cl (centres undefined)"
  result_value: 0.9
- compound: "CCCCNc1cc(C(=O)O)cc(S(N)(=O)=O)c1Oc1ccccc1"
  result_value: 1.53
- compound: "CNC(=O)Oc1ccc2c(c1)[C@]1(C)CCN(C)[C@@H]1N2C"
  result_value: 1.08

Read the next record carefully.
Item under review: CC[N+](C)(C)c1cccc(O)c1 . Reported cytochrome c release ratio? 0.79
